// data source = paper PMC12543283

Items are presented alongside their recorded Sour.
protocol.details: Electronic tongue analysis (Taste-Sensing System SA 402B)
Design: unit not given here
condition.set: sensor CA0, peptide 1 mg/mL, reference solution 30 mM KCl + 0.3 mM tartaric acid as baseline, detection threshold -13, room temperature, four replicates, first measurement excluded
Procedure: Taste characteristics were analyzed using the electronic tongue system E-tongue (Taste-Sensing System SA 402B, Intelligent Sensor Technology Co. Ltd., Japan). The system was equipped with five specific sensor probes for detecting sourness (CA0), saltiness (CT0), bitterness (C00), sweetness (GL1), and umami (AAE). […] All taste measurements were performed at room temperature with four replicates, except for sweetness which was measured five times. […]
Ends that are not written are not given here.

# substance, Sour
measured = [
    ("EPDDPDD [TaPep27]", 14.83),
    ("IAVPHEP [TaPep47]", 10.97),
    ("EDGPHGD [TaPep45]", 12.61),
    ("VAEDLL [TaPep8]", 8.25),
    ("SLEYLP [TaPep35]", 12.93),
    ("LQPDAGK [TaPep6]", 10.67),
    ("AKDEKEL [TaPep1]", 9.07),
    ("STGTIR [TaPep51]", 5.93),
    ("YKYHES [TaPep13]", 12.34),
    ("AEDNSL [TaPep43]", 12.46),
    ("EVGMQE [TaPep56]", 9.59),
    ("YDGTPLN [TaPep11]", 9.08),
    ("PTELESD [TaPep41]", 9.16),
    ("LQDVVE [TaPep24]", 9.09),
]
